Target: T1, recombinant human CD38 his tagged (extracellular domain) (human, UniProt P28907 43-300)
T1 construct: also called rhCD38; rhCD38-his; not shown: Histidine tag
Experiment: Octet BLI affinity, rhCD38
Recorded Kd, one value per entry.
reported property: Kd (nM)

binder	reported property	obs value
aCD38-b-348-m2 (antibody, IgG1, V domains shown) VH: QLQLQESGPGLVKPSETLSLTCTVSGGSISSSDYYWGWIRQPPGKGLEWIGSIYYSGSTYYNPSLKSRVTISVDTSKNQFSLKLSSVTAADTAVYYCARGQYSSGWYAYPFDMWGQGTMVTVSS VL: EIVLTQSPGTLSLSPGERATLSCRASQSVRSSYLAWYQQKPGQAPRLLIYGASSRATGIPDRFSGSGSGTDFTLTISRLEPEDFAVYYCQQDSNVYTFGGGTKVEIK	Kd	39.9
aCD38-b-348-m4 (antibody, IgG1, V domains shown) VH: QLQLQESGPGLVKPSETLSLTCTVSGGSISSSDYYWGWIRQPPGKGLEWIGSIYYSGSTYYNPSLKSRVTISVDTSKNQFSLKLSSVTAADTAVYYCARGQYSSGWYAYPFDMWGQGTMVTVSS VL: EIVLTQSPGTLSLSPGERATLSCRASQSVRSSYLAWYQQKPGQAPRLLIYGASSRATGIPDRFSGSGSGTDFTLTISRLEPEDFAVYYCQQEGNVYTFGGGTKVEIK	Kd	70.1
aCD38-b-348-m1 (antibody, IgG1, V domains shown, also called aCD38-b-348-ml) VH: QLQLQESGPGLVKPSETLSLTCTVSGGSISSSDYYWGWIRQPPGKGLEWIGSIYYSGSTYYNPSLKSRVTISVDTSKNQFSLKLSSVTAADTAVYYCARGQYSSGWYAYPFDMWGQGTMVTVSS VL: EIVLTQSPGTLSLSPGERATLSCRASQSVRSSYLAWYQQKPGQAPRLLIYGASSRATGIPDRFSGSGSGTDFTLTISRLEPEDFAVYYCQQEANVYTFGGGTKVEIK	Kd	24.7
aCD38-b-348-m3 (antibody, IgG1, V domains shown) VH: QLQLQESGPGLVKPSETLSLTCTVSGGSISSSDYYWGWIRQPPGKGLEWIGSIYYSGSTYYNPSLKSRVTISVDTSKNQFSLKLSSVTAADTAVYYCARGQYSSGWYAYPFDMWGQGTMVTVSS VL: EIVLTQSPGTLSLSPGERATLSCRASQSVRSSYLAWYQQKPGQAPRLLIYGASSRATGIPDRFSGSGSGTDFTLTISRLEPEDFAVYYCQQDANVYTFGGGTKVEIK	Kd	55.1
aCD38-b-348 (human IgG1) (antibody, V domains shown, Human IgG1) VH: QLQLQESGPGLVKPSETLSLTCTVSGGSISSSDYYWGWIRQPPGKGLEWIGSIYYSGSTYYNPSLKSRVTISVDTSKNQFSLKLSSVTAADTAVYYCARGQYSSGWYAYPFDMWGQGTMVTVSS VL: EIVLTQSPGTLSLSPGERATLSCRASQSVRSSYLAWYQQKPGQAPRLLIYGASSRATGIPDRFSGSGSGTDFTLTISRLEPEDFAVYYCQQDGNVYTFGGGTKVEIK	Kd	5.79

Hey, just so you know, these numbers are from patent US20200190209A1.
